target: cloned human 5-HT1A receptors (Homo sapiens); construct: expressed in transfected cells; assay: 35S-GTPγS binding assay, agonist activity at 5-HT1A receptors; assay type: biochemical; conditions: 35S-GTPγS binding to membranes containing cloned human 5-HT1A receptors; read-out: 5-HT1A Function EC50
Sequence (P08908 whole entry): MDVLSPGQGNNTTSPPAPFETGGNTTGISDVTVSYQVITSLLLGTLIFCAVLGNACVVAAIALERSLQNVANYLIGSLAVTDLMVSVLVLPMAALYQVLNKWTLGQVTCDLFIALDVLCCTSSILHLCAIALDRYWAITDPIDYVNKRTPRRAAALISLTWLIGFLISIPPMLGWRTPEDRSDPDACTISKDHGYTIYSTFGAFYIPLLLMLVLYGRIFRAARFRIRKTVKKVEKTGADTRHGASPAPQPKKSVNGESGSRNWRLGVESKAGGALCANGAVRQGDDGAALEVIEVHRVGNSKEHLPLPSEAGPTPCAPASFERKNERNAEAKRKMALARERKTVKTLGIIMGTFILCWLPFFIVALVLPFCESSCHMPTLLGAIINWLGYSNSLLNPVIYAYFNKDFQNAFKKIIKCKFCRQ
quantity: log10 of EC50 (log10 of the value in nM)
Recall that a logarithmic scale is used here: each number is log10 of EC50 in nM.

Before answering, review these 5 worked examples.
Fill in reported log10 of EC50 for this entry: COc1cccc2c1OC(CN1CC=C(c3c[nH]c4ccccc34)CC1)C=C2 (stereo not shown)
2.32

Return log10 of EC50 (reported value) for this compound: Fc1ccc2c(C3=CCN(CC4CCc5ccccc5O4)CC3)c[nH]c2c1 (stereo not shown)
3.39

Answer with the recorded log10 of EC50 for the compound listed here: COc1cccc2c1OC(CN1CC=C(c3c[nH]c4ccc(F)cc34)CC1)C=C2 (stereo not shown)
3.23

Please give measured log10 of EC50 of the following entry: COc1cccc2c1OC(CN1CC=C(c3c[nH]c4ccccc34)CC1)CC2 (stereo not shown)
2.28

// Input: COc1cccc2c1OC(CN1CC=C(c3c[nH]c4cc(F)ccc34)CC1)CC2 (stereo not shown) . Output its log10 of EC50 only.
2.93

Next:
Provide one value: measured log10 of EC50 of COc1cccc2c1OC(CN1CC=C(c3c[nH]c4ccc(F)cc34)CC1)CC2 (stereo not shown)
2.45

Provide one value: measured log10 of EC50 of Fc1ccc2[nH]cc(C3=CCN(CC4CCc5ccccc5O4)CC3)c2c1 (stereo not shown)
2.60
